# maps each entry to its pKd
- System Name: T1, CSP Protein (Plasmodium falciparum, UniProt Q7K740 19-374)
- T1 construct: also called circumsporozoite protein; complete CSP protein
- T1 sequence (Q7K740 19-374 limits assumed): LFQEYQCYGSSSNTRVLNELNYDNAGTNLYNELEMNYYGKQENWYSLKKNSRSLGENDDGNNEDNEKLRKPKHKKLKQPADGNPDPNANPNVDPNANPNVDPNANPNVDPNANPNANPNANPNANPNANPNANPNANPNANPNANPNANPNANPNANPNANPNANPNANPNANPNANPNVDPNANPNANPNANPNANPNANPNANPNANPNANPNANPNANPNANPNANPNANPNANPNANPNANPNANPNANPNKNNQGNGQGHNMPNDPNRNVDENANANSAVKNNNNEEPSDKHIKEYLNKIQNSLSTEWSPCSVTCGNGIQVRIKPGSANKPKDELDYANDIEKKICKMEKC
- Protocol: SPR, antibody on chip;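 further: antibodies immobilized on a Carterra chip, directly or via anti-human Fc capture, at two spots each, with CSP flowed over at 4-5 concentrations peaking at 0.5-8 µg/mL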
pKd: −log10 of the molar value.
Parameter Measured: pKd

- AB-007069 (antibody, V domains shown) VH: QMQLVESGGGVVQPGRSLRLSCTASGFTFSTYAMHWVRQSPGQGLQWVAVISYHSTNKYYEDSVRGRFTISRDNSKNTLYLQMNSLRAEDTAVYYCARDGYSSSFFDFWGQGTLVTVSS VL: DIQMTQSPSTLSASVGDRVAITCRASQSISRWLAWYQQQPGKAPKLLMSVASVLESGVPSRFSGSGSGTEFTLTISSLQPDDFATYYCQHYNSYFVTFGQGTKVEIK: 9.76
- AB-007054 (antibody, V domains shown) VH: QMQLVESGGGVVQPGRSLRLSCTASGFTFSTYAMHWVRQSPGQGLQWVAVISYHSTNKYYEDSVRGRFTISRDNSKNTLYLQMNSLRAEDTAVYYCARDGYASSFFDFWGQGTLVTVSS VL: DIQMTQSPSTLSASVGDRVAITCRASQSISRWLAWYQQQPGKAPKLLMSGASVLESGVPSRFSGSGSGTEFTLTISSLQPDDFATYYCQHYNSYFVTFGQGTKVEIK: 9.77
- AB-007070 (antibody, V domains shown) VH: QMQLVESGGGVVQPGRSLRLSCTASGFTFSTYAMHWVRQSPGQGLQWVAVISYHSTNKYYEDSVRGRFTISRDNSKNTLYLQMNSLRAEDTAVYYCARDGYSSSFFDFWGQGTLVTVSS VL: DIQMTQSPSTLSASVGDRVAITCRASQSISRWLAWYQQQPGKAPKLLMSAASVLESGVPSRFSGSGSGTEFTLTISSLQPDDFATYYCQHYNSYFVTFGQGTKVEIK: 9.75
- AB-007058 (antibody, V domains shown) VH: QMQLVESGGGVVQPGRSLRLSCTASGFTFSTYAMHWVRQSPGQGLQWVAVISYHSTNKYYEDSVRGRFTISRDNSKNTLYLQMNSLRAEDTAVYYCARDGYSTSFFDFWGQGTLVTVSS VL: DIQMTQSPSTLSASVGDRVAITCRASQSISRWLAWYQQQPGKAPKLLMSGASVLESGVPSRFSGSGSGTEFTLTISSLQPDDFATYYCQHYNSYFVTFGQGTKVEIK: 9.83
- AB-007073 (antibody, V domains shown) VH: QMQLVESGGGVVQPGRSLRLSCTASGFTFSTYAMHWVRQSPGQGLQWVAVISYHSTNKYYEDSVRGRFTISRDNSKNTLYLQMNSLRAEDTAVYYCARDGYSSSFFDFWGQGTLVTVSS VL: DIQMTQSPSTLSASVGDRVAITCRASQSISRWLAWYQQQPGKAPKLLMSGASVLESGVPSRFSGSGSGTEFTLTISSLQPDDFATYYCQHYNSHFVTFGQGTKVEIK: 10.09
- AB-007067 (antibody, V domains shown) VH: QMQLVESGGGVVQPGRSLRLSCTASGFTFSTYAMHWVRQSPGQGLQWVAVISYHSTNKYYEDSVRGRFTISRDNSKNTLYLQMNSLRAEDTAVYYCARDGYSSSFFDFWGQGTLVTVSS VL: DIQMTQSPSTLSASVGDRVAITCRASQSISRWLAWYQQQPGKAPKLLMSSASVLESGVPSRFSGSGSGTEFTLTISSLQPDDFATYYCQHYNSYFVTFGQGTKVEIK: 10.06

The measurements presented in this section are drawn from patent US20220195023A1.
